Origin of measurements: BindingDB's records for doi:10.1074/jbc.M114.566729

# tested.system: Eyes absent homolog 2 [253-538] (Human)
# Sequence (O00167 whole entry): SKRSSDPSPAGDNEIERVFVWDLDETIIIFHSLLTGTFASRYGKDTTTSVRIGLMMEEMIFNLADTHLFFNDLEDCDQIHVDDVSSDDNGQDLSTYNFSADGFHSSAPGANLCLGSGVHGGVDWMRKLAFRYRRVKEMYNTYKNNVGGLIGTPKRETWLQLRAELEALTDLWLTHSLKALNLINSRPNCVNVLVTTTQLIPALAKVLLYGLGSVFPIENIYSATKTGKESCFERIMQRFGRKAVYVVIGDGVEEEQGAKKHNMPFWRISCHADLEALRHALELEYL
pIC50: −log10 of the molar value.

| compound | pIC50 |
| --- | --- |
| O=C(N/N=C/c1ccc(Sc2ccccn2)s1)c1cccc(F)c1 [NCGC00249327] | 5.54 |
